Biological target: glucose-6-phosphate dehydrogenase-6-phosphogluconolactonase (Plasmodium falciparum 3D7)
Assay: concentration-dependent PfGluPho enzyme inhibition – biochemical, fluorescence intensity, dose response (AID 504765)
Conditions: Recombinant PfG6PD enzyme, fluorescence intensity (NADPH)
Activity calls are given as the source filed them. The rule behind the calls is not given here.
Thanks in advance; please answer with one of these: true = active, false = inactive

{"columns": ["molecule", "discreteLabel"],
 "data": [
  ["Cc1ccc(C)c(-n2sc3ccc(F)cc3c2=O)c1", "true"],
  ["CCn1c(=O)n(CC)c2cc(N3CCCC3)c(NC(=O)c3cccc(C)c3)cc21", "false"],
  ["O=C(Nc1ccc([N+](=O)[O-])cc1Cl)c1cc(Cl)ccc1O", "true"],
  ["Cc1cc(C)c2c(=N)c3ccccc3n(CCCCCCCCn3c4ccccc4c(=N)c4c(C)cc(C)nc43)c2n1", "true"]
]}

Exam item: Call for entry CCN(CC)c1ccc(NC(=O)c2ccccc2Br)cc1S(=O)(=O)Nc1ccccc1OC :
Marked response: false

Exam item: Also Cc1ccc2nc(-c3ccc(NC(=S)NC4CC(C)(C)NC(C)(C)C4)cc3)sc2c1 ?
Marked response: true

Exam item: Also CCOc1ccc(N(CC(=O)N/N=C/c2cc([N+](=O)[O-])ccc2Cl)S(C)(=O)=O)cc1 ?
Marked response: true

* * *

Exercise: for every item that follows, state its recorded pIC50.
Biological target: glucose-6-phosphate dehydrogenase-6-phosphogluconolactonase (Plasmodium falciparum 3D7)
Test: concentration-dependent PfGluPho enzyme inhibition – biochemical, fluorescence intensity, dose response (AID 504765)
Conditions: Recombinant PfG6PD enzyme, fluorescence intensity (NADPH)
Numbers only, as −log10 of the molar value.

Reference set (6 entries):
{"columns": ["compound", "targetDesc", "pIC50"],
 "data": [
  ["CCOc1ccc(CNc2ccc(N3CCCC3)cc2)cc1", "glucose-6-phosphate dehydrogenase-6-phosphogluconolactonase (Plasmodium falciparum 3D7)", 5.58],
  ["Clc1nssc1=Nc1nncs1", "glucose-6-phosphate dehydrogenase-6-phosphogluconolactonase (Plasmodium falciparum 3D7)", 4.84],
  ["Cc1ccc(NS(=O)(=O)c2ccccc2Cl)c2c1CC(C)(C)O2", "glucose-6-phosphate dehydrogenase-6-phosphogluconolactonase (Plasmodium falciparum 3D7)", 5.09],
  ["CCOc1ccccc1C=NNC(=O)CCCCC(=O)NN=Cc1ccccc1OCC", "glucose-6-phosphate dehydrogenase-6-phosphogluconolactonase (Plasmodium falciparum 3D7)", 5.11],
  ["O=C(Nc1nnc(C2CC2)s1)c1ccc(Cl)nc1", "glucose-6-phosphate dehydrogenase-6-phosphogluconolactonase (Plasmodium falciparum 3D7)", 5.38],
  ["O=C(Cn1sc2ccccc2c1=O)Nc1ccccc1", "glucose-6-phosphate dehydrogenase-6-phosphogluconolactonase (Plasmodium falciparum 3D7)", 5.71]
]}

Hi! Can you tell me pIC50 for each of these compounds?
1. O=C(O)CSc1cc(NS(=O)(=O)c2cccc([N+](=O)[O-])c2)c2ccccc2c1O
2. O=[N+]([O-])c1cnc(Sc2ccncn2)c([N+](=O)[O-])c1
3. Cc1cccc(C2(c3cccc(C)c3)CC2C(=O)Nc2ccc([N+](=O)[O-])cc2O)c1 (stereo unspecified)
4. Cc1cc(O)c(C(C)C)cc1N=Cc1ccccc1[N+](=O)[O-]

Marked response:
1. 5.87
2. 5.02
3. 4.88
4. 5.46

Exam item: glucose-6-phosphate dehydrogenase-6-phosphogluconolactonase (Plasmodium falciparum 3D7) / pIC50 / N#CC(C#N)=C1C=CC=CN1/C(=C\c1ccccc1Cl)C(=O)c1ccccc1 : value?
Marked response: 5.08

* * *

Biological target: glucose-6-phosphate dehydrogenase-6-phosphogluconolactonase (Plasmodium falciparum 3D7)
Assay: concentration-dependent PfGluPho enzyme inhibition – biochemical, fluorescence intensity, dose response (AID 504765)
Settings: Recombinant PfG6PD enzyme, fluorescence intensity (NADPH)
pIC50: −log10 of the molar value.
true means recorded pIC50 is 5 or above; false means it is below 5.

Look over these answered cases.
{"columns": ["compound", "discreteLabel"],
 "data": [
  ["CC1CCc2[nH]c3ccc(C(=O)N(C)CC(=O)Nc4ccccc4C(F)(F)F)cc3c2C1 (stereo unspecified)", "true"],
  ["O=c1c2ccccc2sn1-c1ccc(Cl)cc1Cl", "true"],
  ["Cc1ccc(-c2nn(C)c(=O)c3ccccc23)cc1CNC(=O)/C=C/c1ccccc1", "true"],
  ["CCC(=O)OCCNc1cc(Sc2nc3ccccc3s2)c2nonc2c1[N+](=O)[O-]", "false"],
  ["CCCNC(=O)Cn1sc2nc(C)cc(C)c2c1=O", "true"]
]}

Let us examine a further case.
Exam item: Is the recorded value of pIC50 equal to or greater than 5 for this compound? CCOC(=O)CSc1nnc(NC(=O)c2cccc([N+](=O)[O-])c2)s1
Marked response: true

* * *

Target: glucose-6-phosphate dehydrogenase-6-phosphogluconolactonase (Plasmodium falciparum 3D7)
Assay: concentration-dependent PfGluPho enzyme inhibition – biochemical, fluorescence intensity, dose response (AID 504765)
Conditions: Recombinant PfG6PD enzyme, fluorescence intensity (NADPH)
pIC50: −log10 of the molar value.
criterion met means recorded pIC50 is 5 or above; criterion not met means it is below 5.

Look over these answered cases.
{"columns": ["compound", "discreteLabel"],
 "data": [
  ["C=CCSc1nnc(NC(=O)c2ccc(Cl)nc2)s1", "criterion met"],
  ["Cc1cc(C)c2c(=O)n(CC(=O)N3CCC(N4CCCCC4)CC3)sc2n1", "criterion met"],
  ["COc1cc(/C=N/n2cc(-c3ccccc3)[nH]c2=S)cc(OC)c1O", "criterion not met"],
  ["Cc1c(C(=O)N(Cc2ccccc2Cl)C2CCS(=O)(=O)C2)oc2ccccc12 (stereo unspecified)", "criterion met"],
  ["Cc1ccccc1-n1sc2cc(F)ccc2c1=O", "criterion met"]
]}

Let us examine a further case.
Exam item: Is the recorded value of pIC50 equal to or greater than 5 for this compound? [O-]/[N+](=C\c1ccccc1)c1ccc(Br)cc1
Marked response: criterion met

* * *

Target: glucose-6-phosphate dehydrogenase-6-phosphogluconolactonase (Plasmodium falciparum 3D7)
Assay: concentration-dependent PfGluPho enzyme inhibition – biochemical, fluorescence intensity, dose response (AID 504765)
Conditions: Recombinant PfG6PD enzyme, fluorescence intensity (NADPH)
Active and inactive are the calls of the source. The rule behind the calls is not given here.
Thanks in advance; please answer with one of these: Yes = active, No = inactive

Look over these answered cases.
{"columns": ["molecule", "targetDesc", "discreteLabel"],
 "data": [
  ["O=c1[nH]c2ccc(NCc3ccccc3OCc3ccc(Cl)cc3)cc2[nH]1", "glucose-6-phosphate dehydrogenase-6-phosphogluconolactonase (Plasmodium falciparum 3D7)", "No"],
  ["CNS(=O)(=O)c1ccc(-c2ccc(C=C3C(=O)NC(=O)NC3=O)o2)cc1", "glucose-6-phosphate dehydrogenase-6-phosphogluconolactonase (Plasmodium falciparum 3D7)", "Yes"]
]}

Exam item: Call for entry COc1cc(N=c2ssnc2Cl)c(OC)cc1Cl :
Marked response: Yes

Exam item: Also CC1CCc2c(nc3sc4c(c3c2N)CCCC4)C1 (stereo unspecified) ?
Marked response: Yes

Exam item: Also Cc1ccc(C(=O)Nc2nnc(S(=O)(=O)N3CCC(C)CC3)s2)cc1 ?
Marked response: No

Exam item: Also CCOc1ccccc1CNc1ccc(O)cc1 ?
Marked response: Yes

Exam item: Also Oc1ccc(NCc2ccccc2OCc2ccccc2)cc1 ?
Marked response: No

* * *

Molecular target: glucose-6-phosphate dehydrogenase-6-phosphogluconolactonase (Plasmodium falciparum 3D7)
Experiment: concentration-dependent PfGluPho enzyme inhibition – biochemical, fluorescence intensity, dose response (AID 504765)
Conditions: Recombinant PfG6PD enzyme, fluorescence intensity (NADPH)
Calls of active or inactive are those of the source. How the calls were made is not given here.
propertyName: IC50

{"columns": ["compound", "IC50"],
 "data": [
  ["COc1ccc(NC(=S)N(CCC(C)C)C2CCN(C(C)C)CC2)cc1Cl", "14.3 µM"],
  ["NCCc1cc(O)c(O)cc1O", "3.51 µM"],
  ["COc1ccc(C(=O)/C=C2\\Sc3ccccc3N2C)cc1", "7.94 µM"],
  ["Cc1ccc(C(=O)NCC(=O)NCC(=O)OCC(=O)c2ccc([N+](=O)[O-])cc2)cc1", "5.92 µM"],
  ["Cc1ccc(NC(=O)Cn2sc3ccccc3c2=O)cc1", "4.24 µM"],
  ["Cc1ccnc(-n2sc3ccccc3c2=O)n1", "11.7 µM"],
  ["Cc1ccc(S(=O)(=O)N(C)C)cc1NC(=O)CSc1nc2ncc(Cl)cc2[nH]1", "12.1 µM"],
  ["Cc1cc(C)c(NC(=S)NCC2CCN(C(C)c3ccccc3)C2)c(C)c1 (stereo not given)", "14.8 µM"],
  ["O=C1C=CC(=O)N1c1ccc(-c2nc3ccccc3o2)cc1", "12.6 µM"],
  ["CCCN1CCc2cccc3c2[C@H]1Cc1ccc(O)c(O)c1-3", "15 µM"]
]}

Hi! Can you tell me IC50 for each of these compounds?
1. Cc1ccc(NC(=O)Cn2sc3nc(C)cc(C)c3c2=O)c(Cl)c1
2. COC(=O)[C@H](CCSC)NC(=O)c1cc2c(cn1)[nH]c1ccccc12
3. Cc1c(Cl)c([N+](=O)[O-])nn1Cc1ccc(C(=O)N/N=C\c2cccc(Br)c2)o1
4. Cc1ccsc1/C=N\NC(=O)CC(=O)NCc1ccccc1
5. COc1ccc(S(=O)(=O)/N=C2\C=C(Nc3ccc(O)cc3)C(=O)c3ccccc32)cc1
6. Oc1cc(-n2cccn2)c(O)cc1-n1cccn1

Marked response:
["2.09 µM", "inactive", "9.37 µM", "6.41 µM", "inactive", "6.03 µM"]

Hi! Can you tell me IC50 for each of these compounds?
1. Cc1nnc(Sc2cc(NCCO)c([N+](=O)[O-])c3nonc23)s1
2. CCOC(=O)Nc1ccc(NCc2ccc(F)cc2)nc1N
3. COc1cc(CNc2ccc(N3CCCC3)cc2)cc(Cl)c1OC
4. COc1cc(C(=O)O/N=C2\C=CC(=O)C=C2C)cc(OC)c1OC
5. COC(=O)CCC(=O)OC1(C)C(=O)C2=CN(c3ccccc3)C(c3ccc(OC)cc3)=CC2=C(Br)C1=O (stereo not given)

Marked response:
1: 5.56 µM; 2: 3 µM; 3: 3.64 µM; 4: 14.1 µM; 5: 3.16 µM

Hi! Can you tell me IC50 for each of these compounds?
1. Cn1c2ccccc2c2ccc3c(c21)C(=O)C=CC3=O
2. O=C(CNc1ccc2c(c1)OCO2)N/N=C\c1cn(Cc2ccccc2)c2ccccc12
3. Cc1ccc(-c2c(C(=O)N/N=C/c3cccs3)nnn2-c2nonc2N)cc1
4. Cc1ccc(S(=O)(=O)SCCCSS(=O)(=O)c2ccc(C)cc2)cc1
5. COc1cccc2nc3cc(C)c(C)cc3nc12
6. CCC(c1ccc(O)c(O)c1)C(CC)c1ccc(O)c(O)c1 (stereo not given)
7. Cc1ccc(NC(=O)c2ccc(Cl)c(N3C(=O)C=CC3=O)c2)cc1
8. CC(CNc1ccccc1O)C(=O)O (stereo not given)

Marked response:
["> 80 µM (inactive)", "inactive", "3.91 µM", "4.64 µM", "4.69 µM", "inactive", "7.52 µM", "6.16 µM"]

Hi! Can you tell me IC50 for each of these compounds?
1. COc1cccc(C2(c3cccc(OC)c3)CC2C(=O)Nc2ccc(F)cc2)c1 (stereo not given)
2. COC(=O)CCC(=O)OC1(C)C(=O)C2=CN(c3ccc(OC)cc3)C(c3ccc(OC)cc3)=CC2=C(Br)C1=O (stereo not given)
3. S=C(NN=Cc1ccccn1)N(Cc1ccccn1)Cc1ccccn1
4. O=C(COC(=O)c1ccc2c(c1[N+](=O)[O-])C(=O)c1ccccc1C2=O)NC1CC1
5. O=c1[nH]sc2cc(F)ccc12
6. C[c-]1[c-](C)[c-](C)[c-](C)[c-]1C.[Fe].c1cc2nccc(N3CCCC3)[c-]2c1 (stereo not given)
7. O=C1C=CC(=O)N1c1ccc2c(c1)C(NC(=O)C(F)(F)F)c1ccccc1-2 (stereo not given)

Marked response:
1. 10.3 µM
2. 3.09 µM
3. 4.66 µM
4. 16.4 µM
5. 9.86 µM
6. inactive
7. 9.14 µM

Hi! Can you tell me IC50 for each of these compounds?
1. COc1c(O)ccc2c1CN1CCc3cc4c(cc3C1C2)OCO4 (stereo not given)
2. CCOC(=O)c1c(C2COc3ccccc3O2)csc1NC(=O)c1ccco1 (stereo not given)
3. O=[N+]([O-])c1c(NCCO)cc(Sc2nc3ccccc3s2)c2nonc12

Marked response:
["15.5 µM", "14.2 µM", "10.2 µM"]

Hi! Can you tell me IC50 for each of these compounds?
1. COc1ccc(-n2sc3ccccc3c2=O)cc1
2. CCC1(CC)Cc2ccccc2C(N)=C1C#N
3. CC1(OC(=O)C2CCCC2)C(=O)C=C2C=C(c3ccsc3)N(CC3CC3)C=C2C1=O (stereo not given)
4. S=c1ncc2[nH]c(=S)[nH]c2[nH]1
5. O=c1c2ccccc2sn1-c1ccccc1

Marked response:
1.49 µM
inactive
7.8 µM
4.41 µM
1.15 µM

Exam item: Item under review: COc1ccc(C(=O)Nc2cc(Cl)ccc2C(=O)O)cc1 . Reported IC50?
Marked response: 15 µM

FYI, the data here is from PubChem BioAssay AID504765.
